Value source: patent US4789736A

- Experimental Details: Rat biodistribution of Tc-99m complexes from isolated stereoisomers (Example 24)
- Measurement Conditions: (a) diastereoisomers; 1 hr pi; rats; mean from 3 animals
Endpoint Label: % id/organ, Blood
Could you give the number and then its unit, please?

So what's the measured % id/organ, Blood for this one? CC(=NO)[C@H](C)NCCCN[C@@H](C)C(C)=NO (relative stereo) [Compound 2 d1]
7.8 % id/organ

// lookup % id/organ, Blood for CC(=NO)[C@H](C)NCCCN[C@H](C)C(C)=NO [Compound 2 meso]
2.8 % id/organ

GET /values?readout=% id/organ, Blood&item= CC(=NO)[C@H](C)NCC(C)(C)CN[C@H](C)C(C)=NO [Compound 1 meso]
3.1 % id/organ

Find the recorded % id/organ, Blood belonging to CC(=NO)[C@H](C)NCC(C)(C)CN[C@@H](C)C(C)=NO (relative stereo) [Compound 1 d1] and report it.
8.6 % id/organ

###

- Experimental Details: Rat biodistribution of Tc-99m complexes from isolated stereoisomers (Example 24)
- Measurement Conditions: (a) diastereoisomers; 2 mins pi; rats; mean from 3 animals
Assign % id/organ, Brain to each entry below.
Expressed in % id/organ, but write only the number.

Fill blank: measured % id/organ, Brain of the molecule CC(=NO)[C@H](C)NCCCN[C@@H](C)C(C)=NO (relative stereo) [Compound 2 d1] is ____.
1.8

Which % id/organ, Brain is reported for this molecule? CC(=NO)[C@H](C)NCC(C)(C)CN[C@H](C)C(C)=NO
1.1

% id/organ, Brain for CC(=NO)[C@H](C)NCCCN[C@H](C)C(C)=NO ?
1.7

I am curious: what % id/organ, Brain value has been reported for CC(=NO)[C@H](C)NCC(C)(C)CN[C@@H](C)C(C)=NO (relative stereo) [Compound 1 d1] ?
2.1

###

Kindly supply the reported % id/organ, Brain values for the records listed here.
- Experimental Details: Animal biodistribution of Tc-99m complexes of ligands, no separation of stereoisomers (Example 22)
- Assay type: in vivo, rats
- Measurement Conditions: 1 hr pi; i.v. rats; mean of 3 animals
Form entry: value (% id/organ) — number only.

Tell me the measured % id/organ, Brain of CCC(=NO)C(C)NCCCNC(C)C(CC)=NO (centres unmarked) [Compound 4] , please.
1.5

Using the record for CC(=NO)C(C)NCC(C)(C)CNC(C)C(C)=NO (racemic) [Compound 1] , report its % id/organ, Brain.
1.2

// % id/organ, Brain lookup, key: CC(C)C(=NO)C(C)NCCCNC(C)C(=NO)C(C)C (centres unmarked) [Compound 13]
0.2

What does the record list as % id/organ, Brain for CC(=NO)C(C)NCC(C)CNC(C)C(C)=NO (centres unmarked) [Compound 11] ?
1.0

Consider the compound CCC(CC)(CNC(C)C(C)=NO)CNC(C)C(C)=NO (centres unmarked) [Compound 7] and give its measured % id/organ, Brain.
0.5

Given CC(=NO)C(C)NC(C)CC(C)NC(C)C(C)=NO (centres unmarked) [Compound 12] , state its recorded % id/organ, Brain.
0.9

// lookup % id/organ, Brain for CCCC(=NO)C(C)NCCCNC(C)C(CCC)=NO (centres unmarked) [Compound 5]
0.6

Could you tell me which % id/organ, Brain is on file for CC(=NO)C(C)NCCCNC(C)C(C)=NO (racemic) [Compound 2] ?
1.4

###

- Experimental Details: Animal biodistribution of Tc-99m complexes of ligands, no separation of stereoisomers (Example 22)
- Assay type: in vivo, rats
- Measurement Conditions: 1 hr pi; i.v. rats; mean of 3 animals
Endpoint Label: % id/organ, Blood
Output should be the measured figure followed by the unit it is expressed in.

% id/organ, Blood lookup needed for CCCC(=NO)C(C)NCCCNC(C)C(CCC)=NO (centres unmarked) , thanks.
2.8 % id/organ

Entry under review: CC(=NO)C(C)NCCCNC(C)C(C)=NO (racemic) . Reported % id/organ, Blood?
12.4 % id/organ

Please give the measured % id/organ, Blood for this molecule: CC(=NO)C(C)NCC(C)(C)CNC(C)C(C)=NO (racemic)
19.6 % id/organ

Entry CCC(CC)(CNC(C)C(C)=NO)CNC(C)C(C)=NO (centres unmarked) has what % id/organ, Blood?
3.3 % id/organ

What value of measured % id/organ, Blood is listed for CCC(=NO)C(C)NCCCNC(C)C(CC)=NO (centres unmarked) ?
5.7 % id/organ

I am curious: what % id/organ, Blood value has been reported for CC(=NO)C(C)NC(C)CC(C)NC(C)C(C)=NO (centres unmarked) ?
6.0 % id/organ

Look up % id/organ, Blood for this molecule: CC(=NO)C(C)NCC(C)CNC(C)C(C)=NO (centres unmarked)
4.7 % id/organ

Name the recorded % id/organ, Blood for CC(C)C(=NO)C(C)NCCCNC(C)C(=NO)C(C)C (centres unmarked) .
7.2 % id/organ

###

- Experimental Details: In vitro stability of Tc-99m complexes (radiochemical purity by thin layer chromatography)
- Format: physicochemical
- Measurement Conditions: 60 min post formation; dl/meso mixture; read-out: % of the desired Tc-99m complex
Endpoint Label: remaining at 1 h (%)
Express it in %; write the number only.

Item under review: CC(=NO)C(C)NCCCNC(C)C(C)=NO (racemic) [Compound 2] . Reported remaining at 1 h?
60

What does the data say about its remaining at 1 h? Entry: CC(=NO)C(C)NCC(C)(C)CNC(C)C(C)=NO (racemic) [Compound 1]
87

###

Exercise: state measured % id/organ, Liver for each of the compounds provided.
- Experimental Details: Rat biodistribution of Tc-99m complexes from isolated stereoisomers (Example 24)
- Measurement Conditions: (a) diastereoisomers; 2 mins pi; rats; mean from 3 animals
In your response, put the unit directly after the numeric value.

Give the measured % id/organ, Liver of CC(=NO)[C@H](C)NCC(C)(C)CN[C@H](C)C(C)=NO .
19.9 % id/organ

// % id/organ, Liver lookup, key: CC(=NO)[C@H](C)NCCCN[C@H](C)C(C)=NO
17.9 % id/organ

Given CC(=NO)[C@H](C)NCC(C)(C)CN[C@@H](C)C(C)=NO (relative stereo) [Compound 1 d1] , state its recorded % id/organ, Liver.
11.3 % id/organ

Record request: % id/organ, Liver value, item CC(=NO)[C@H](C)NCCCN[C@@H](C)C(C)=NO (relative stereo) [Compound 2 d1]
11.6 % id/organ

###

- Experimental Details: Animal biodistribution of Tc-99m complexes of ligands, no separation of stereoisomers (Example 22)
- Type: in vivo, rats
- Measurement Conditions: 2 min pi; i.v. rats; mean of 3 animals
For each of the compounds below, state its % id/organ, Brain.
A number alone suffices; assume % id/organ.

Suppose we examine the compound CCC(=NO)C(C)NCC(C)(C)CNC(C)C(CC)=NO (centres unmarked) [Compound 6] ; what % id/organ, Brain value has been reported?
1.2

Would you mind telling me what % id/organ, Brain value was observed for CC(=NO)C(C)NCCCNC(C)C(C)=NO (racemic) [Compound 2] ?
1.6

Could you tell me which % id/organ, Brain is on file for CC(C)C(=NO)C(C)NCCCNC(C)C(=NO)C(C)C (centres unmarked) [Compound 13] ?
0.5

So what's the measured % id/organ, Brain for this one? CC(=NO)C(C)NCC(C)(C)CNC(C)C(C)=NO (racemic) [Compound 1]
1.5

// % id/organ, Brain lookup, key: CC(=NO)C(C)NC(C)CC(C)NC(C)C(C)=NO (centres unmarked) [Compound 12]
1.0

Please give the measured % id/organ, Brain for this compound: CCC(NCCCNC(CC)C(C)=NO)C(C)=NO (centres unmarked) [Compound 3]
1.1

Name the reported % id/organ, Brain value associated with the compound CC(=NO)C(C)NCC(C)CNC(C)C(C)=NO (centres unmarked) [Compound 11]
1.3

So what's the measured % id/organ, Brain for this one? CCC(=NO)C(C)NCCCNC(C)C(CC)=NO (centres unmarked) [Compound 4]
1.6

Need % id/organ, Brain, item CC(=NO)C(NCCCNC(C(C)=NO)c1ccccc1)c1ccccc1 (centres unmarked) [Compound 10]
0.4

GET /values?readout=% id/organ, Brain&item= CCCC(=NO)C(C)NCCCNC(C)C(CCC)=NO (centres unmarked) [Compound 5]
0.8

Which % id/organ, Brain is reported for this compound? CCC(CC)(CNC(C)C(C)=NO)CNC(C)C(C)=NO (centres unmarked) [Compound 7]
1.0

###

Hi there, I'd appreciate the recorded % id/organ, Liver for every entry that follows.
- Experimental Details: Animal biodistribution of Tc-99m complexes of ligands, no separation of stereoisomers (Example 22)
- Type: in vivo, rats
- Measurement Conditions: 1 hr pi; i.v. rats; mean of 3 animals
Could you give me the number in % id/organ? Just the number is fine.

Suppose we examine the molecule CCC(CC)(CNC(C)C(C)=NO)CNC(C)C(C)=NO (centres unmarked) [Compound 7] ; what % id/organ, Liver value has been reported?
36.5

Given the entry CC(=NO)C(C)NCC(C)(C)CNC(C)C(C)=NO (racemic) [Compound 1] , report its measured % id/organ, Liver.
5.4

What value of % id/organ, Liver has been recorded for this entry: CC(=NO)C(C)NCC(C)CNC(C)C(C)=NO (centres unmarked) [Compound 11]
10.2

Any idea what % id/organ, Liver was measured for CC(C)C(=NO)C(C)NCCCNC(C)C(=NO)C(C)C (centres unmarked) [Compound 13] ?
12.5

Name the recorded % id/organ, Liver for CCC(=NO)C(C)NCCCNC(C)C(CC)=NO (centres unmarked) [Compound 4] .
12.7

Look at this molecule and give its reported % id/organ, Liver. CC(=NO)C(C)NCCCNC(C)C(C)=NO (racemic) [Compound 2]
4.9

Request the reported % id/organ, Liver associated with CC(=NO)C(C)NC(C)CC(C)NC(C)C(C)=NO (centres unmarked) [Compound 12]
19.7

So what's the measured % id/organ, Liver for this one? CCCC(=NO)C(C)NCCCNC(C)C(CCC)=NO (centres unmarked) [Compound 5]
12.1
